Assay: Pharmacokinetics and biodistribution after topical PS 8% ointment to hind paws (Example 25)
Assay type: in vivo, mouse
Conditions: mouse, in vivo, topical or ocular, 50 μl per paw of PS 8% ointment, leg muscle; normal mice, topical PS 8% ointment to hind paws
Assay Endpoint: half-life (min)
Note: unit min is implicit; provide only the numeric part.

Ask: Find the recorded half-life belonging to CCOP(=O)(OCC)OCCCCOC(=O)CC1=C(C)/C(=C/c2ccc([S+](C)[O-])cc2)c2ccc(F)cc21 (stereo not shown) and report it.
Reply: 1240

---

Test: Pharmacokinetics and biodistribution of PS upon oral administration (Example 27)
Type: in vivo, rat
Conditions: Sprague-Dawley, rat; medulla; rats, single oral dose of PS 250 mg/kg; read-out: Cmax, Mean ± SEM
Assay Endpoint: Cmax (µM)
Note: unit µM is implicit; provide only the numeric part.

Ask: Find the recorded Cmax belonging to CCOP(=O)(OCC)OCCCCOC(=O)CC1=C(C)/C(=C/c2ccc([S+](C)[O-])cc2)c2ccc(F)cc21 (stereo not shown) and report it.
Reply: 0.5

---

Assay: Pharmacokinetics and biodistribution after topical PS 8% ointment to hind paws (Example 25)
Format: in vivo, mouse
Details: mouse, in vivo, topical or ocular, 50 μl per paw of PS 8% ointment, paw muscle; normal mice, topical PS 8% ointment to hind paws; read-out: AUC0-24 h
Description: At 0.5, 1, 3, 5, 12, 18, and 24 h, mice (n=4-5 mice/time point) were euthanized with CO2 inhalation. Blood was drawn immediately after death. Tissues, including paw skin, paw muscle, leg muscle, the sciatic nerve and lumbar DRG bilaterally were dissected quickly, immediately frozen in liquid nitrogen and stored at −80° C. until analyzed.
Assay Endpoint: AUC(0-t) (µM·h)
Note: unit µM·h is implicit; provide only the numeric part.

Ask: Find the recorded AUC(0-t) belonging to CCOP(=O)(OCC)OCCCCOC(=O)CC1=C(C)/C(=C/c2ccc([S+](C)[O-])cc2)c2ccc(F)cc21 (stereo not shown) and report it.
Reply: 411

---

Assay: Pharmacokinetics and biodistribution after 3% PS gel on outer surface of eyelid (Example 26)
Type: in vivo, rabbit
Conditions: male, New Zealand White, rabbit, topical; vitreous, 4 h; rabbits, 3% PS gel on outer surface of upper eyelids; read-out: Amount in tissue, Mean ± SEM
Assay Endpoint: concentration at 4 h
Respond with a number, then the unit of measure.

CCOP(=O)(OCC)OCCCCOC(=O)CC1=C(C)/C(=C/c2ccc([S+](C)[O-])cc2)c2ccc(F)cc21 (centres unmarked) [PS, phosphosulindac] : 0 nM

# next compound below
Ask: Find the recorded concentration at 4 h belonging to CC1=C(CC(=O)O)c2cc(F)ccc2/C1=C\c1ccc([S+](C)[O-])cc1 (centres unmarked) [sulindac] and report it.
Reply: 0 nM

---

Experiment: Pharmacokinetics and biodistribution after 3% PS gel on outer surface of eyelid (Example 26)
Format: in vivo, rabbit
Conditions: male, New Zealand White, rabbit, topical; vitreous, 8 h; rabbits, 3% PS gel on outer surface of upper eyelids; read-out: Amount in tissue, Mean ± SEM
Listing: concentration at 8 h of selected compounds
Note: unit µM is implicit; provide only the numeric part.

Ask: Find the recorded concentration at 8 h belonging to CC1=C(CC(=O)O)c2cc(F)ccc2/C1=C\c1ccc([S+](C)[O-])cc1 (centres unmarked) and report it.
Reply: 0

Ask: Subsequent entry: CCOP(=O)(OCC)OCCCCOC(=O)CC1=C(C)/C(=C/c2ccc([S+](C)[O-])cc2)c2ccc(F)cc21 (centres unmarked)
Reply: 0
